These measurements were taken from PubChem BioAssay (NCI).

Test system: HCT-116 colon
Assay: NCI-60 one-dose screen, 48 h (100 = growth as untreated, 0 = no growth, -100 = all killed)
Settings: 10 µM unless noted
About 83,000 compounds went through this panel and 20% of them were active in at least one assay; those are over-represented in the sample as a whole.
Grouping rule (growth): low interval = under 50%, middle interval = from 50% up to 90%, high interval = 90% and over

compound=O=C(O)COc1ccc([N+](=O)[O-])cc1Cl cat="high interval"
compound=COc1ccc(C(=O)CN2C(=O)NC(c3ccccc3)(c3ccccc3)C2=O)cc1 cat="high interval"
compound=Cc1ccc(C(=O)NN)cc1 cat="high interval"
compound=O=C(CN1CCN(c2cccc(Cl)c2)CC1)N1CCN(c2nnc(-c3ccc(Cl)cc3)c(-c3ccc(Cl)cc3)n2)CC1 cat="middle interval"
compound=CC(=N\N=C(N)N)/C(=N/N=C(N)N)c1ccccc1 cat="middle interval"
compound=CC(=O)Nc1ccc(S(=O)(=O)Cl)cc1 cat="high interval"
compound="CCCCCCCCCCCCCCCCC(=O)O.CCCCCCCCCCCCCCCCCC(=O)O.CCCCCCCCCCCCCCCCCC(=O)O.CCCCCCCCCCCCCCCCCC(=O)O.CCCCCCCCCCCCCCCCCC(=O)O.CO[CH-]OC12COC1CC(O)C1(C)C(O)C(OC(C)O)C3=C(C)C(OC(=O)C(O)C([NH-])c4ccccc4)CC(O)(C(OC(=O)c4ccccc4)C21)C3(C)C.[Cu+].[Zn].[Zn].[Zn].[Zn].[Zn] (configuration not stated)" cat="low interval"
compound=COc1cc(NC(=O)CSc2nc3ccc(Cl)cc3c(=O)n2-c2ccc(F)cc2)cc(OC)c1OC cat="middle interval"
compound="COC(=O)C(N)CC(C)C (configuration not stated)" cat="high interval"
compound=COC(=O)[C@@H]1[C@H](O)[C@H](C)[C@H](O)[C@H](C)/C=C\C=C(C)C(=O)Nc2c(C)c(OC(C)=O)c3c(c2O)C(=O)C(C)=C2OCOC(=C23)C(C)=C[C@@](C)(O)[C@H](O)[C@@H](C)[C@H]1OC(C)=O cat="middle interval"

Category lookup for the compound COc1cc(-c2nn(-c3ccc(NC(=O)Nc4ccc(Cl)c(Cl)c4)cc3)cc2-c2ccncc2)ccc1Cl
low interval

Category lookup for the compound Cn1c2c(cc(S(=O)(=O)c3ccccc3)c1=O)CCc1c-2cnn1-c1ccc(Cl)cc1
middle interval

Category lookup for the compound COc1nc(OC)nc(-c2cc(-c3cc(OC)c(OC)c(OC)c3)no2)n1
high interval

Category lookup for the compound CCOc1ccc(N(C)c2ccc(/C=C/C3=[N+](C)c4ccccc4C3(C)C)cc2)cc1
low interval

Category lookup for the compound COc1ccc(Cn2cc3c(c2-c2ccccc2)CCc2cnoc2-3)cc1N
low interval

Category lookup for the compound COc1cc(-c2nc(/C=C3/C(=O)Nc4ccccc43)c3ccccn23)cc(OC)c1OC
middle interval

* * *

Can you tell me growth for the items I'm about to list?
Test system: SK-OV-3 ovarian
Test: NCI-60 one-dose screen, 48 h (100 = growth as untreated, 0 = no growth, -100 = all killed)
Settings: 10 µM unless noted
Compounds without any hit were thinned out: in the full panel of roughly 83,000, 20% have a hit. Calls of active or inactive are those of the source. Rule for the calls: active = growth percent below 10; inactive = the rest.

Guide cases for growth, answers given:
molecule=COc1cccc(NC(=O)NCCNc2nccc(-c3c(-c4ccc(F)cc4)nc4sccn34)n2)c1 test_result="77.9% (inactive)"
molecule=C=CN(C)S(C)(=O)=O test_result="13.8% (inactive)"
molecule=CC(=O)c1cc(Nc2cc(C)nc(N)n2)cc(C(C)=O)c1 test_result="116% (inactive)"
molecule=COC(=O)c1ccc2[nH]c(O)c(C(=Nc3ccc(N(C)C(=O)CN4CCN(C)CC4)cc3)c3cccc(OC)c3)c2c1 test_result="-0.652% (active)"

Working through the 5 molecules below one at a time, give growth for each.
1. O=C(NC1CCN(Cc2ccccc2)CC1)c1cc(-c2cccnc2)nc2ccc(Cl)cc12
2. O=C(CBr)OCc1ccc([N+](=O)[O-])o1
3. CC1CCCCC[N+]12CCCC2 (stereo unspecified)
4. O=C(CCl)c1ccc2c(c1)CCCC2
5. Cc1c(Cc2ccccc2)c(=O)oc2c(C)c(OCC(=O)n3nc(C#N)cc3N)ccc12

1: 102% (inactive); 2: 105% (inactive); 3: 98.1% (inactive); 4: 110% (inactive); 5: 93.8% (inactive)

Working through the 5 molecules below one at a time, give growth for each.
1. O=C1C(=O)c2ccccc2C(O)=C1CCCc1ccc(C2CCCC2)cc1
2. Cc1ccc(NC(=O)CCl)cc1Cl
3. Clc1ccc(N/N=C(\c2ccccc2)c2ccccn2)nc1
4. C[C@]12C=CC(=O)C=C1[C@@H](F)C[C@@H]1[C@@H]2[C@@H](O)C[C@@]2(C)[C@H]1CC[C@]2(O)C(=O)CO
5. N#Cc1c(N)nc(Nc2nc3ccccc3[nH]2)nc1-c1ccc(Cl)cc1

55% (inactive)
102% (inactive)
12.5% (inactive)
71.3% (inactive)
88.4% (inactive)

Working through the 4 molecules below one at a time, give growth for each.
1. C=CCC(CCC(CC=C)C(=O)OCC)C(=O)OCC (stereo unspecified)
2. CC(C)CSc1nc(-c2ccc(F)cc2)c(C#N)c(N2CCCCC2)n1
3. CC#Cc1nc(Nc2cc(C)[nH]n2)c2ccccc2n1
4. CCCC(=O)NNc1[nH]c(-c2cc(OC)c(OC)c(OC)c2)cc1C(=O)OCC

1. 107% (inactive)
2. 99.6% (inactive)
3. 29.4% [100 µM] (inactive)
4. 110% (inactive)

Working through the 2 molecules below one at a time, give growth for each.
1. COc1ccc(/C=C2\CCCC3=C2N=C2SC=NN2C3c2ccc(OC)c(OC)c2)cc1OC (stereo unspecified)
2. COc1cc2ncnc(-n3ncc4cc(NC(=O)Nc5ccccc5)ccc43)c2cc1OC

81.9% (inactive)
3.75% (active)

Working through the 3 molecules below one at a time, give growth for each.
1. COC(=O)c1cc(=O)nc(N/N=C/c2ccccc2O)s1
2. Cc1ccc([C@@H]2C[C@H](O)Cc3ccccc3N2)s1
3. CN1CCN(Cc2ccc(NC(=O)c3cncc(C#Cc4c(N)ncc5ccc(F)cc45)c3)cc2C(F)(F)F)CC1

103% (inactive)
98.6% (inactive)
60% (inactive)

Working through the 4 molecules below one at a time, give growth for each.
1. COC(=O)C1CC(=O)N(C(=O)Nc2ccc(Cl)cc2Cl)C1 (stereo unspecified)
2. CC(=O)N1N=C(c2ccc(Cl)cc2)CC1c1cn(-c2ccccc2)nc1-c1ccc([N+](=O)[O-])cc1 (stereo unspecified)
3. COc1cc(-c2nc3c(c(C)nc4c3nnn4-c3ccccc3)c(=O)o2)cc(OC)c1OC
4. COC(=O)c1cc(Nc2ccc(O)c3c2C(=O)c2c([N+](=O)[O-])ccc(O)c2C3=O)cc(C(=O)OC)c1

["88.4% (inactive)", "96.5% (inactive)", "115% (inactive)", "82.3% (inactive)"]

Working through the 8 molecules below one at a time, give growth for each.
1. C=C[C@]1(C)C=C2C(=O)[C@@]3(O)OC[C@@]4(CCCC(C)(C)C43O)C2(O)C(O)C1 (stereo partly specified)
2. COc1cc2ncnc(-n3ncc4cc(NC(=O)Nc5ccc(Cl)c(Cl)c5)ccc43)c2cc1OC
3. Cc1nc(N)sc1C(=O)NCCO
4. C/C(=N\Nc1cccc(Cl)n1)c1ccccn1
5. COC(=O)[C@H](Cc1cn(C)cn1)NC(=O)[C@H](CC(=O)OCc1ccccc1)NC(=O)Nc1cc(C(F)(F)F)cc(C(F)(F)F)c1
6. CNCCCNCCCCNCCCN1C(=O)c2ccc3c4c(ccc(c24)C1=O)C(=O)N(CCCNCc1ccccc1OC)C3=O
7. COc1ccccc1CNCCCN1C(=O)c2ccc3c4c(ccc(c24)C1=O)C(=O)N(CCCNCc1ccccc1OC)C3=O
8. CCCC(=O)NNc1[nH]c(-c2ccc(OC)cc2)cc1C(=O)OCC

104% (inactive)
-24.9% (active)
113% (inactive)
22.5% (inactive)
-100% [100 µM] (active)
54.4% (inactive)
0% (active)
113% (inactive)

Working through the 6 molecules below one at a time, give growth for each.
1. COC(=O)C(Cc1cnc[nH]1)N1CC(=O)N2[C@@H](c3ccccc3)SC[C@H]2C1=O (stereo partly specified)
2. CCC(CCCN1C(=O)c2ccccc2C1=O)Nc1cc(OC)cc2c(C)ccnc12 (stereo unspecified)
3. Cc1c(Cc2ccccc2)c(=O)oc2c(C)c(OCc3n[nH]c(=S)o3)ccc12
4. Clc1ccc(N/N=C/c2ccccn2)nc1
5. Cn1c2c(cc(S(=O)(=O)c3ccccc3)c1=O)CCc1c-2cnn1-c1ccc(Cl)cc1
6. CCCNC(=O)Oc1ccc(/C(=C(/C)Cc2ccc(OC)cc2)c2ccc(OCCN3CCCC3)cc2)cc1

1. 115% (inactive)
2. 100% (inactive)
3. 86.9% (inactive)
4. 27.2% (inactive)
5. 1.98% (active)
6. 81.3% (inactive)
